- protocol text: in vivo
- condition label: male, Sprague-Dawley, rat, po, 50 mg/kg, Absorption/distribution half life
recorded endpoint: half-life (min)

{"compound": "CCCCCCCCCNc1ccc(F)c(C(N)=O)c1F [Compound F332, 2,6-difluoro-3-(nonylamino)benzamide]", "val": 21}

====

Listing of recorded log10 of MIC by entry.
- System: B. subtilis 168
- protocol text: Antibacterial susceptibility test (MIC, microbroth dilution)
- Type: cell-based
- condition label: Bacillus subtilis, 168; 18 hours at 37° C., >90% inhibition of bacterial growth; read-out: MIC, BS 168
recorded endpoint: log10 of MIC (log10 of the value in µM)

{"molecule": "CCCCCC/C=C\\CNc1ccc(F)c(C(N)=O)c1F", "log10 of MIC": 0.80}
{"molecule": "CCCCCCCCCNc1ccc(F)c(C(N)=O)c1F [Compound F332, 2,6-difluoro-3-(nonylamino)benzamide]", "log10 of MIC": 0.50}
{"molecule": "CCCCCCCCNc1cccc(C(N)=O)c1 [Compound F412, 3-(octylamino)benzamide]", "log10 of MIC": 1.40}
{"molecule": "CCCCCCCCCN(C)c1ccc(F)c(C(N)=O)c1F", "log10 of MIC": 0.20}
{"molecule": "CCCCCCCCCNc1cc(C(N)=O)c(F)cc1F [Compound F345, 2,4-difluoro-5-(nonylamino)benzamide]", "log10 of MIC": 2.00}
{"molecule": "CCCCCCCCCNc1c(Br)cc(F)c(C(N)=O)c1F", "log10 of MIC": 0.80}
{"molecule": "CCCCCCCCCNc1ccc(F)c(C(N)=O)c1 [Compound F342, 2-fluoro-5-(nonylamino)benzamide]", "log10 of MIC": 1.40}
{"molecule": "CCCCCCCCN(CC)c1ccc(F)c(C(N)=O)c1F", "log10 of MIC": 1.40}
{"molecule": "CCCCCCCCN(C)c1ccc(F)c(C(N)=O)c1F", "log10 of MIC": 1.40}
{"molecule": "CCCCCCCCNc1ccc(F)c(C(N)=O)c1F [Compound F333, 2,6-difluoro-3-(octylamino)benzamide]", "log10 of MIC": 0.80}
{"molecule": "CC(C)=CCC/C(C)=C/CNc1ccc(F)c(C(N)=O)c1F", "log10 of MIC": 1.70}
{"molecule": "CCCCCCCNc1ccc(F)c(C(N)=O)c1F [Compound F391, 2,6-difluoro-3-(heptylamino)benzamide]", "log10 of MIC": 1.70}
{"molecule": "CCCCCCCCCNc1cccc(C(N)=O)c1 [Compound F411, 3-(nonylamino)benzamide]", "log10 of MIC": 0.80}

====

Listing of recorded MIC by entry.
- Tested on: E. coli
- protocol text: Antibacterial susceptibility test (MIC, microbroth dilution)
- Type: cell-based
- condition label: Escherichia coli; 18 hours at 37° C., >90% inhibition of bacterial growth
recorded endpoint: MIC

{"compound": "NC(=O)c1c(F)ccc(N2CCCC2)c1F [Compound F357]", "val": "> 100 µM"}
{"compound": "CCCCOCCCCNc1ccc(F)c(C(N)=O)c1F [Compound F350]", "val": "> 100 µM"}
{"compound": "CCCCCCCCN(C)c1ccc(F)c(C(N)=O)c1F [Compound F409]", "val": "> 100 µM"}
{"compound": "NC(=O)c1c(F)ccc(N2CCCCC2)c1F [Compound F358, 2,6-difluoro-3-(piperidin-1-yl)benzamide]", "val": "> 100 µM"}
{"compound": "CCCCCCCCN(CC)c1ccc(F)c(C(N)=O)c1F [Compound F410]", "val": "> 100 µM"}
